Data provenance is patent US12491170B2.

Assay: Stability in cryopreserved hepatocytes, dog
Hi! Could you tag entries with Trep Concentration (μM) 30 min below 0.1 µM as true (1), and those at or above as false (0)? Much appreciated.

compound	cat
CCCCCC(CCC1C(O)CC2Cc3c(cccc3OCC(=O)O)CC21)OC(=O)c1ccc(C)cc1 (centres unmarked)	false (0)
CCCCCC(CCC1C(O)CC2Cc3c(cccc3OCC(=O)O)CC21)OC(=O)N1CCC(O)CC1 (centres unmarked)	true (1)
CCCCCC(CCC1C(O)CC2Cc3c(cccc3OCC(=O)O)CC21)OC(=O)C(C)C (centres unmarked)	false (0)
CCCCCC(CCC1C(O)CC2Cc3c(cccc3OCC(=O)O)CC21)OC(=O)C(N)CCCCN (centres unmarked)	true (1)
CCCCC[C@H]1CC[C@@H]2[C@H]3Cc4cccc(OCC(=O)O)c4C[C@H]3C[C@H]2OC(=O)O1	false (0)
CCCCCC(CCC1C(O)CC2Cc3c(cccc3OCC(=O)O)CC21)OC(N)=O (centres unmarked)	false (0)
CCCCCC(CCC1C(O)CC2Cc3c(cccc3OCC(=O)O)CC21)OC(=O)CC (centres unmarked)	false (0)
CCCCCC(CCC1C(O)CC2Cc3c(cccc3OCC(=O)O)CC21)OCC(=O)O (centres unmarked)	true (1)
CCCCCC(CCC1C(O)CC2Cc3c(cccc3OCC(=O)O)CC21)OC(=O)c1ccc(O)c(O)c1 (centres unmarked)	true (1)
CCCCCC(CCC1C(O)CC2Cc3c(cccc3OCC(=O)O)CC21)OC(C)=O (centres unmarked)	false (0)
CCCCCC(CCC1C(O)CC2Cc3c(cccc3OCC(=O)O)CC21)OC(=O)C1CCCN1 (centres unmarked)	false (0)
CCCCCC(CCC1C(O)CC2Cc3c(cccc3OCC(=O)O)CC21)OC(=O)COc1ccc(O)cc1 (centres unmarked)	false (0)
CCCCCC(CCC1C(O)CC2Cc3c(cccc3OCC(=O)O)CC21)OC(=O)c1ccccc1O (centres unmarked)	true (1)
CCCCCC(CCC1C(O)CC2Cc3c(cccc3OCC(=O)O)CC21)OCCC (centres unmarked)	true (1)

* * *

Target: UniProtKB P43116
Sequence (P43116 whole entry): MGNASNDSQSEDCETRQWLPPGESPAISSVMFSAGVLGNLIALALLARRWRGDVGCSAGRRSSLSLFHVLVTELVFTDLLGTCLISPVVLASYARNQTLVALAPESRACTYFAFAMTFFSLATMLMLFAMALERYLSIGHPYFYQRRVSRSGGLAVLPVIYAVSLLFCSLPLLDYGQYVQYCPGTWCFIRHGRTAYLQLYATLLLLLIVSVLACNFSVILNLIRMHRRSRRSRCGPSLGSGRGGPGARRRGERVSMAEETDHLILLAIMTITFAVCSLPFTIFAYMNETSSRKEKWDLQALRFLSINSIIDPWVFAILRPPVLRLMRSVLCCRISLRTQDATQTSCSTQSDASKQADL
Assay: EP2 receptor cAMP agonist assay (HEK293T cells)
Type: cell-based
Details: Table 22; relative to treprostinil EC50 values; * partial agonists or ambiguous dose-response curves

compound	target.or.system	EP2 Relative to Tre (x*)
CCCCCC(CCC1C(O)CC2Cc3c(cccc3OCC(=O)O)CC21)OC(=O)C12CC3CC(CC(C3)C1)C2 (stereo not shown) [Prodrug LXIX]	UniProtKB P43116	236
CCCCCC(CCC1C(O)CC2Cc3c(cccc3OCC(=O)O)CC21)OC(=O)COc1ccccc1 (stereo not shown) [Prodrug LXV]	UniProtKB P43116	187
CCCCCC(CCC1C(O)CC2Cc3c(cccc3OCC(=O)O)CC21)OC(=O)COc1ccc(OC(F)(F)F)cc1 (stereo not shown) [Prodrug LXIV]	UniProtKB P43116	24
CCCCCC(CCC1C(O)CC2Cc3c(cccc3OCC(=O)O)CC21)OC(=O)C(C)C (stereo not shown) [Prodrug LXVII]	UniProtKB P43116	34

* * *

Assay: Stability in liver microsomes, human
Each item that follows carries a reported Trep Concentration 20 min.
test.readout: Trep Concentration 20 min

compound	test.readout	endpoint.value
CCCCC[C@@H](CC[C@@H]1[C@H]2Cc3cccc(OCC(=O)O)c3C[C@H]2C[C@H]1O)OC(=O)[C@@H](N)C(C)C [XXIX]	Trep Concentration 20 min	0.0168 µM
CCCCCC(CCC1C(O)CC2Cc3c(cccc3OCC(=O)O)CC21)OC(=O)CN (centres unmarked) [XXX]	Trep Concentration 20 min	0.227 µM
CCCCCC(CCC1C(O)CC2Cc3c(cccc3OCC(=O)O)CC21)OC(=O)OCC (centres unmarked) [XVI]	Trep Concentration 20 min	0.49 µM
CCCCCC(CCC1C(O)CC2Cc3c(cccc3OCC(=O)O)CC21)OC(=O)c1ccc(C)cc1 (centres unmarked) [XLVIII]	Trep Concentration 20 min	0.322 µM
CCCCCC(CCC1C(O)CC2Cc3c(cccc3OCC(=O)O)CC21)OC(=O)C1CCCN1 (centres unmarked) [XXXVI]	Trep Concentration 20 min	0.478 µM
CCCCCC(CCC1C(O)CC2Cc3c(cccc3OCC(=O)O)CC21)OC(C)=O (centres unmarked) [XLIII]	Trep Concentration 20 min	0.602 µM
CCCCCC(CCC1C(O)CC2Cc3c(cccc3OCC(=O)O)CC21)OC(=O)NCC(=O)O (centres unmarked) [XXXVIII]	Trep Concentration 20 min	0 µM
CCCCCC(CCC1C(O)CC2Cc3c(cccc3OCC(=O)O)CC21)OC(=O)c1ccc(OC(F)(F)F)cc1 (centres unmarked) [LXIII]	Trep Concentration 20 min	0.24 µM
CCCCCC(CCC1C(O)CC2Cc3c(cccc3OCC(=O)O)CC21)OC (centres unmarked) [XLV]	Trep Concentration 20 min	0.156 µM
CCCCCC(CCC1C(O)CC2Cc3c(cccc3OCC(=O)O)CC21)OC(=O)OC(C)C (centres unmarked) [XVII]	Trep Concentration 20 min	0.5 µM
CCCCCC(CCC1C(O)CC2Cc3c(cccc3OCC(=O)O)CC21)OC(=O)CCC(=O)N1CCOCC1 (centres unmarked) [XXXIII]	Trep Concentration 20 min	0 µM
CCCCCC(CCC1C(O)CC2Cc3c(cccc3OCC(=O)O)CC21)OC(=O)C(C)C (centres unmarked) [LXVII]	Trep Concentration 20 min	0.755 µM
CCCCCC(CCC1C(O)CC2Cc3c(cccc3OCC(=O)O)CC21)OC(=O)CO (centres unmarked) [XLIV]	Trep Concentration 20 min	0.549 µM
CCCCCC(CCC1C(O)CC2Cc3c(cccc3OCC(=O)O)CC21)OC(=O)C(C)(C)C (centres unmarked) [XLIX]	Trep Concentration 20 min	0.174 µM
CCCCCC(CCC1C(O)CC2Cc3c(cccc3OCC(=O)O)CC21)OP(=O)(O)O (centres unmarked) [VI]	Trep Concentration 20 min	0.038 µM
CCCCCC(CCC1C(O)CC2Cc3c(cccc3OCC(=O)O)CC21)OCCN1CCOCC1 (centres unmarked) [L]	Trep Concentration 20 min	0.00309 µM
CCCCCC(CCC1C(O)CC2Cc3c(cccc3OCC(=O)O)CC21)OC(=O)C12CC3CC(CC(C3)C1)C2 (centres unmarked) [LXIX]	Trep Concentration 20 min	0.367 µM
CCCCCC(CCC1C(O)CC2Cc3c(cccc3OCC(=O)O)CC21)OC(=O)COc1ccc(O)cc1 (centres unmarked) [LIV]	Trep Concentration 20 min	0.564 µM
CCCCCC(CCC1C(O)CC2Cc3c(cccc3OCC(=O)O)CC21)OC(=O)NCCO (centres unmarked) [LIX]	Trep Concentration 20 min	0 µM
CCCCCC(CCC1C(O)CC2Cc3c(cccc3OCC(=O)O)CC21)OC(=O)N1CCC(O)CC1 (centres unmarked) [LVIII]	Trep Concentration 20 min	0 µM

* * *

Settings: rat
Definition: the class of an entry is the range in low = under 0.4 µmol·min/L, medium = from 0.4 µmol·min/L up to 10 µmol·min/L, high = 10 µmol·min/L and over that contains its AUC.

compound	cat
CCCCCC(CCC1C(O)CC2Cc3c(cccc3OCC(=O)O)CC21)OC(=O)COc1ccc(O)cc1 (stereo not drawn)	high
CCCCCC(CCC1C(O)CC2Cc3c(cccc3OCC(=O)O)CC21)OCC(=O)O (stereo not drawn)	low
CCCCCC(CCC1C(O)CC2Cc3c(cccc3OCC(=O)O)CC21)OC(=O)c1ccc(C)cc1 (stereo not drawn)	medium
CCCCCC(CCC1C(O)CC2Cc3c(cccc3OCC(=O)O)CC21)OC(=O)N1CCC(O)CC1 (stereo not drawn)	low
CCCCCC(CCC1C(O)CC2Cc3c(cccc3OCC(=O)O)CC21)OC(=O)CCC(=O)O (stereo not drawn)	high
CCCCCC(CCC1C(O)CC2Cc3c(cccc3OCC(=O)O)CC21)OCCN1CCOCC1 (stereo not drawn)	low
CCCCCC(CCC1C(O)CC2Cc3c(cccc3OCC(=O)O)CC21)OC(=O)OC (stereo not drawn)	high
CCCCCC(CCC1C(O)CC2Cc3c(cccc3OCC(=O)O)CC21)OC(=O)CN (stereo not drawn)	medium
CCCCCC(CCC1C(O)CC2Cc3c(cccc3OCC(=O)O)CC21)OC(=O)C1CCCN1 (stereo not drawn)	high
CCCCCC(CCC1C(O)CC2Cc3c(cccc3OCC(=O)O)CC21)OCC (stereo not drawn)	medium
CCCCCC(CCC1C(O)CC2Cc3c(cccc3OCC(=O)O)CC21)OC(=O)CO (stereo not drawn)	high
CCCCCC(CCC1C(O)CC2Cc3c(cccc3OCC(=O)O)CC21)OC(=O)CCC(=O)N1CCOCC1 (stereo not drawn)	medium
CCCCCC(CCC1C(O)CC2Cc3c(cccc3OCC(=O)O)CC21)OC(=O)C(N)CCCCN (stereo not drawn)	medium

* * *

Assay: Stability in cryopreserved hepatocytes, human
Each item that follows carries a reported Trep Concentration (μM) 120 min.

compound	measure.unit	Trep Concentration (μM) 120 min
CCCCCC(CCC1C(O)CC2Cc3c(cccc3OCC(=O)O)CC21)OC(=O)c1ccccc1O (centres unmarked) [LXI]	µM	0.0701
CCCCCC(CCC1C(O)CC2Cc3c(cccc3OCC(=O)O)CC21)OC(=O)c1ccc(O)cc1 (centres unmarked) [LXVIII]	µM	0.17
CCCCCC(CCC1C(O)CC2Cc3c(cccc3OCC(=O)O)CC21)OC(=O)C(N)CCCCN (centres unmarked) [XXXV]	µM	0.194
CCCCCC(CCC1C(O)CC2Cc3c(cccc3OCC(=O)O)CC21)OC(=O)c1ccc(C(F)(F)F)cc1 (centres unmarked) [LXII]	µM	0.222
CCCCCC(CCC1C(O)CC2Cc3c(cccc3OCC(=O)O)CC21)OC(=O)CO (centres unmarked) [XLIV]	µM	0.506
CCCCCC(CCC1C(OC(=O)CC)CC2Cc3c(cccc3OCC(=O)O)CC21)OC(=O)CC (centres unmarked) [Prodrug LXX, treprostinil dipropionate]	µM	0.413
CCCCCC(CCC1C(O)CC2Cc3c(cccc3OCC(=O)O)CC21)OCc1oc(=O)oc1C (centres unmarked) [LI]	µM	0.55
CCCCCC(CCC1C(O)CC2Cc3c(cccc3OCC(=O)O)CC21)OC(N)=O (centres unmarked) [XLII]	µM	0.217
CCCCCC(CCC1C(O)CC2Cc3c(cccc3OCC(=O)O)CC21)OCCN1CCOCC1 (centres unmarked) [L]	µM	0.00197
CCCCCC(CCC1C(O)CC2Cc3c(cccc3OCC(=O)O)CC21)OC(=O)NC (centres unmarked) [VIII]	µM	0
CCCCCC(CCC1C(O)CC2Cc3c(cccc3OCC(=O)O)CC21)OC(=O)COc1ccc(O)cc1 (centres unmarked) [LIV]	µM	0.461
CCCCCC(CCC1C(O)CC2Cc3c(cccc3OCC(=O)O)CC21)OC(=O)CCN (centres unmarked) [XXXVII]	µM	0.115
CCCCCC(CCC1C(O)CC2Cc3c(cccc3OCC(=O)O)CC21)OC(=O)NCCO (centres unmarked) [LIX]	µM	0
CCCCCC(CCC1C(O)CC2Cc3c(cccc3OCC(=O)O)CC21)OC(=O)C(C)(C)C (centres unmarked) [XLIX]	µM	0.237
